settings: 5% to 12% relative humidity, dark, air, 16 d; measured 8.5% (Form A 5.8%), 24° C.
Observable: HPLC-purity (%)
Kindly provide the numeric value in % only, without the unit symbol.

Example entries and their recorded answers appear below.
[
  {
    "Molecule": "Nc1nc(O)c2c(CCc3ccc(C(=O)N[C@@H](CCC(=O)O)C(=O)O)cc3)c[nH]c2n1 [Heptahydrate]",
    "Unit name": "%",
    "HPLC-purity": 99.88
  },
  {
    "Molecule": "Nc1nc(O)c2c(CCc3ccc(C(=O)N[C@@H](CCC(=O)O)C(=O)O)cc3)c[nH]c2n1 [2.5 hydrate]",
    "Unit name": "%",
    "HPLC-purity": 99.80
  },
  {
    "Molecule": "Nc1nc(O)c2c(CCc3ccc(C(=O)N[C@@H](CCC(=O)O)C(=O)O)cc3)c[nH]c2n1 [Form IV]",
    "Unit name": "%",
    "HPLC-purity": 99.88
  }
]

Pending molecule:
// returns reported HPLC-purity for input Nc1nc(O)c2c(CCc3ccc(C(=O)N[C@@H](CCC(=O)O)C(=O)O)cc3)c[nH]c2n1 [Form A]
99.50
